# System: LNCaP
# Protocol details: Cytotoxicity against human LNCAP cells after 48 hrs by SRB assay
# Type: functional, cell-based
pIC50: −log10 of the molar value.
Below, each entry is listed alongside its reported pIC50.

{"columns": ["Compound", "Subject of test", "pIC50"],
 "data": [
  ["C[C@H]1O[C@@H](O[C@H]2CC[C@@]3(C)[C@@H](CC[C@]4(C)[C@@H]3C=C[C@]35OC[C@@]6(CCC(C)(C)C[C@H]63)[C@@H](O)C[C@]54C)[C@]2(C)CO)[C@H](O)[C@@H](O[C@@H]2O[C@H](CO)[C@@H](O)[C@H](O[C@@H]3O[C@H](CO)[C@@H](O)[C@H](O)[C@H]3O[C@@H]3O[C@H](CO)[C@@H](O)[C@H](O)[C@H]3O)[C@H]2O)[C@H]1O", "LNCaP", "< 4.30"],
  ["CC[C@]1(O)C[C@@H]2CN(CCc3c([nH]c4ccccc34)[C@@](C(=O)OC)(c3cc4c(cc3OC)N(C)[C@H]3[C@@](O)(C(=O)OC)[C@H](OC(C)=O)[C@]5(CC)C=CCN6CC[C@]43[C@@H]65)C2)C1.O=S(=O)(O)O [VINBLASTINE SULFATE]", "LNCaP", 4.53],
  ["C[C@H]1O[C@@H](O[C@H]2CC[C@@]3(C)[C@@H](CC[C@]4(C)[C@@H]3C=C[C@]35OC[C@@]6(CCC(C)(C)C[C@H]63)[C@@H](O)C[C@]54C)[C@]2(C)CO)[C@H](O[C@@H]2O[C@H](CO)[C@@H](O)[C@H](O)[C@H]2O)[C@@H](O[C@@H]2O[C@H](CO)[C@@H](O)[C@H](O)[C@H]2O)[C@H]1O", "LNCaP", "< 4.30"],
  ["C[C@H]1O[C@@H](O[C@H]2CC[C@@]3(C)[C@@H](CC[C@]4(C)[C@@H]3C=C[C@]35OC[C@@]6(CCC(C)(C)C[C@H]63)[C@@H](O)C[C@]54C)[C@]2(C)CO)[C@H](O)[C@@H](O[C@@H]2O[C@H](CO)[C@@H](O)[C@H](O)[C@H]2O)[C@H]1O", "LNCaP", "< 4.30"]
]}

====

# Tested on: Caco-2
# Protocol details: Cytotoxicity against human Caco-2 cells after 48 hrs by SRB assay
# Format: functional, cell-based
# Condition description: Caco-2, 48 h
Measured property: IC50 (µM)

{"columns": ["Structure", "Subject of test", "Quantitative readout"],
 "data": [
  ["C[C@H]1O[C@@H](O[C@H]2CC[C@@]3(C)[C@@H](CC[C@]4(C)[C@@H]3C=C[C@]35OC[C@@]6(CCC(C)(C)C[C@H]63)[C@@H](O)C[C@]54C)[C@]2(C)CO)[C@H](O)[C@@H](O[C@@H]2O[C@H](CO)[C@@H](O)[C@H](O[C@@H]3O[C@H](CO)[C@@H](O)[C@H](O)[C@H]3O[C@@H]3O[C@H](CO)[C@@H](O)[C@H](O)[C@H]3O)[C@H]2O)[C@H]1O", "Caco-2", 16.7]
]}

====

# Protocol details: Cytotoxicity against human 142BR cells after 48 hrs by SRB assay
# Type: cell-based
# Condition description: Homo sapiens
Below, each entry is listed alongside its reported IC50.

{"columns": ["Compound", "IC50"],
 "data": [
  ["C[C@H]1O[C@@H](O[C@H]2CC[C@@]3(C)[C@@H](CC[C@]4(C)[C@@H]3C=C[C@]35OC[C@@]6(CCC(C)(C)C[C@H]63)[C@@H](O)C[C@]54C)[C@]2(C)CO)[C@H](O[C@@H]2O[C@H](CO)[C@@H](O)[C@H](O)[C@H]2O)[C@@H](O[C@@H]2O[C@H](CO)[C@@H](O)[C@H](O)[C@H]2O)[C@H]1O [BUDDLEJASAPONIN IV]", "> 50 µM"],
  ["CC[C@]1(O)C[C@@H]2CN(CCc3c([nH]c4ccccc34)[C@@](C(=O)OC)(c3cc4c(cc3OC)N(C)[C@H]3[C@@](O)(C(=O)OC)[C@H](OC(C)=O)[C@]5(CC)C=CCN6CC[C@]43[C@@H]65)C2)C1.O=S(=O)(O)O [VINBLASTINE SULFATE]", "37.6 µM"],
  ["C[C@H]1O[C@@H](O[C@H]2CC[C@@]3(C)[C@@H](CC[C@]4(C)[C@@H]3C=C[C@]35OC[C@@]6(CCC(C)(C)C[C@H]63)[C@@H](O)C[C@]54C)[C@]2(C)CO)[C@H](O)[C@@H](O[C@@H]2O[C@H](CO)[C@@H](O)[C@H](O[C@@H]3O[C@H](CO)[C@@H](O)[C@H](O)[C@H]3O[C@@H]3O[C@H](CO)[C@@H](O)[C@H](O)[C@H]3O)[C@H]2O)[C@H]1O [SONGAROSAPONIN D]", "> 50 µM"],
  ["C[C@H]1O[C@@H](O[C@H]2CC[C@@]3(C)[C@@H](CC[C@]4(C)[C@@H]3C=C[C@]35OC[C@@]6(CCC(C)(C)C[C@H]63)[C@@H](O)C[C@]54C)[C@]2(C)CO)[C@H](O)[C@@H](O[C@@H]2O[C@H](CO)[C@@H](O)[C@H](O)[C@H]2O)[C@H]1O [SAIKOSAPONIN A]", "> 50 µM"]
]}
